target: bdSUMO Mut15-MBP fusion protein
measured-endpoint: cleavage of the SUMO fusion protein

Solved entries:
bdSENP1^MutK (protein) PFVPLTDEDEDNVRHALGGRKVSETLSVHEASQIVITREILQCLNDKEWLNDEVINLYLELLKERELREPNKFLKCHFFNTFFYKKLINGGYDYKSVRVWTTGRKLGYNLIDCDKIFVPIHKDVHWCLAVINIKEKKFQYLDSLGYMDMKALRILAKYLVDEVKDKSGKQIDVHAWKQEGVQNLPLQENGWDCGMFMLKYIDFYSRDMELVFGQKHMSYFRRRTAKEILDLKAG	100 % cleavage
bdSENP1^MutJ (protein) PFVPLTDEDEDNVRHALGGRKESETLSVHEASSIVITREILQCLNDKEWLNDEVINLYLELLKERELREPNKFLKCHFFNTFFYKKLINGGYDYKSVRSWTTTRKLGYNLIDCDKIFVPIHKDVHWCLAVINIKEKKFQYLDSLGYMDMKALRILAKYLVDEVKDKSGKQIDVHAWKQEGVQNLPLQENGWDCGMFMLKYIDFYSRDMELVFGQKHMSYFRRRTAKEILDLKAG	100 % cleavage
bdSENP1 from B. distachyon (protein) PFVPLTDEDEDNVRHALGGRKRSETLSVHEASNIVITREILQCLNDKEWLNDEVINLYLELLKERELREPNKFLKCHFFNTFFYKKLINGGYDYKSVRRWTTKRKLGYNLIDCDKIFVPIHKDVHWCLAVINIKEKKFQYLDSLGYMDMKALRILAKYLVDEVKDKSGKQIDVHAWKQEGVQNLPLQENGWDCGMFMLKYIDFYSRDMELVFGQKHMSYFRRRTAKEILDLKAG	< 25 % cleavage
hsSENP2 (protein) EFPEITEEMEKEIKNVFRNGNQDEVLSEAFRLTITRKDIQTLNHLNWLNDEIINFYMNMLMERSKEKGLPSVHAFNTFFFTKLKTAGYQAVKRWTKKVDVFSVDILLVPIHLGVHWCLAVVDFRKKNITYYDSMGGINNEACRILLQYLKQESIDKKRKEFDTNGWQLFSKKSQEIPQQMNGSDCGMFACKYADCITKDRPINFTQQHMPYFRKRMVWEILHRKLL	resistant

Now, please, on to the next protein.
Exercise: // returns reported cleavage of the SUMO fusion protein for input Ulp1 from S. cerevisiae (protein) LVPELNEKDDDQVQKALASRENTQLMNRDNIEITVRDFKTLAPRRWLNDTIIEFFMKYIEKSTPNTVAFNSFFYTNLSERGYQGVRRWMKRKKTQIDKLDKIFTPINLNQSHWALGIIDLKKKTIGYVDSLSNGPNAMSFAILTDLQKYVMEESKHTIGEDFDLIHLDCPQQPNGYDCGIYVCMNTLYGSADAPLDFDYKDAIRMRRFIAHLILTDALK
Key: resistant
